biological target: Bcl-xL, Q07817; test: peptide SPOT array, c-Myc-tagged receptor at 1 uM or 100 nM, anti-c-Myc-Cy3
Sequence (Q07817 1-209): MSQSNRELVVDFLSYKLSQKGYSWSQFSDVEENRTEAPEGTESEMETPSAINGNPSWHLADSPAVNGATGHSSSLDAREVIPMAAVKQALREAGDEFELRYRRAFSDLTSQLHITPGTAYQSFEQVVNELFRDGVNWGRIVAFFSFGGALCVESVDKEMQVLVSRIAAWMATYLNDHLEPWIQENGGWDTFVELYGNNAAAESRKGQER
// boundary case: SPOT signal as a fraction of Bim BH3's signal on the same receptor and array equal to 0.1 maps to rule not met; strictly smaller maps to rule met

Exercise: Criterion: SPOT signal as a fraction of Bim BH3's signal on the same receptor and array strictly below 0.1. Is it met by NEEGQQFALKLHRLLRTSFRNLKNKR [RIOK2] ?
Key: rule not met

Exercise: Item AYRGRGIAKHDAKAALDFVVEEDLKA [C17orf103] : SPOT signal as a fraction of Bim BH3's signal on the same receptor and array beneath 0.1, strictly?
Key: rule not met

Exercise: State whether 0.1 exceeds SPOT signal as a fraction of Bim BH3's signal on the same receptor and array recorded for SDNLFKWVGTIHGAAGTVYEDLRYKL [UBE2C] .
Key: rule met

Exercise: A record lists KEDLKGNIDKLRALADDIDKTHKKFT [APOL6] . Is its SPOT signal as a fraction of Bim BH3's signal on the same receptor and array below 0.1?
Key: rule not met

Exercise: Field: below-cutoff. Rule: recorded SPOT signal as a fraction of Bim BH3's signal on the same receptor and array strictly less than 0.1. Subject: SQEPLEKAQLLALVGDQLIQSHHYAA [MCF2L2]
Key: rule met

Exercise: Hello, is SPOT signal as a fraction of Bim BH3's signal on the same receptor and array of the following binder strictly smaller than 0.1? SAGVPVRGVELQAALERFARCFGRTD [TIGD7]
Key: rule met

Exercise: Below 0.1 on SPOT signal as a fraction of Bim BH3's signal on the same receptor and array? Entry ISSLDLLPYGLRYIAKVLKNSIHEKF [IQGAP2]
Key: rule not met

Exercise: Is SPOT signal as a fraction of Bim BH3's signal on the same receptor and array of KNIAGALAFWMANALELLNFIKQDRD [MLLT4] strictly below 0.1?
Key: rule met

Exercise: Input DLSSTFVSLALRKVLDWPLSARREKG [TTC31] ; condition: SPOT signal as a fraction of Bim BH3's signal on the same receptor and array strictly below 0.1. Does it hold?
Key: rule not met
